- Tgt: WT IDH2 (Homo sapiens, UniProt P48735)
- Construct: made in house; host or cells: Sf21 insect cells (cell pellets prepared at Evotec)
- Sequence (P48735 40-452): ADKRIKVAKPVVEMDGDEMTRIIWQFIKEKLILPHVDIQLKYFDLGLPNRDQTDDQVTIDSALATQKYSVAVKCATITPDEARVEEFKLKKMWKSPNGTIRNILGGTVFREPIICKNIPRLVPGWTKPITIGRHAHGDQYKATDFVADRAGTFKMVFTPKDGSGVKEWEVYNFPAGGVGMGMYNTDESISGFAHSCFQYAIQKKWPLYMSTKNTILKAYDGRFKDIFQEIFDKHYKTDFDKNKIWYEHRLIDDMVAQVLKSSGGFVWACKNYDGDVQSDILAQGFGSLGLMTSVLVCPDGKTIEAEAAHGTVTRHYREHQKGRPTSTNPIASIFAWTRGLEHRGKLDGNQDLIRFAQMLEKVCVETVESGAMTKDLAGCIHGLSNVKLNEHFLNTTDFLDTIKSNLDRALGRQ
- Assay name: Absorbance assay, WT activity in the presence of equimolar DL-isocitrate (inhibition)
- Type: biochemical
- Condition: […] isocitrate and […] test compound, 75 μM NADP+, 2.0 nM WT IDH2
Counter-ions that a name gives are not always drawn.
Measured endpoint: activity [%] (%-substrate conversion after 20 min incubation) (%)
Write it as a number; the unit % goes unstated.

Recorded result, O=C(O)C(=O)CC(CCCc1ccccc1)C(=O)O (racemic) [compound 18] , activity [%] (%-substrate conversion after 20 min incubation): 100

Recorded result, COC(=O)CCC(=O)C(=O)OC [dimethyl 2-oxoglutaric acid] , activity [%] (%-substrate conversion after 20 min incubation): 97

Recorded result, O=C(O)C(=O)CS [mercaptopyruvic acid] , activity [%] (%-substrate conversion after 20 min incubation): 85

Recorded result, CC(C)(C)CCC(CC(=O)C(=O)O)C(=O)O (racemic) [compound 17] , activity [%] (%-substrate conversion after 20 min incubation): 100

Recorded result, O=C(O)C(=O)C1CCC(C(=O)O)CC1 (mixture of isomers) [compound 25] , activity [%] (%-substrate conversion after 20 min incubation): 92

Recorded result, COC(=O)/C=C/C(=O)OC [dimethyl fumarate] , activity [%] (%-substrate conversion after 20 min incubation): 100

Recorded result, O=C(O)C(=O)c1ccc(C(=O)O)cc1 [compound 30] , activity [%] (%-substrate conversion after 20 min incubation): 100

Recorded result, O=C(O)C(=O)Cc1c[nH]c2ccccc12 [indole-3-pyruvic acid] , activity [%] (%-substrate conversion after 20 min incubation): 89

Recorded result, N[C@@H](CCCC(=O)O)C(=O)O [L-2-aminoadipic acid] , activity [%] (%-substrate conversion after 20 min incubation): 101

Recorded result, O=C(O)/C=C/C(=O)O [fumaric acid] , activity [%] (%-substrate conversion after 20 min incubation): 97

Recorded result, CC1(C)C(C(=O)O)C1C(=O)C(=O)O (mixture of isomers) [compound 22] , activity [%] (%-substrate conversion after 20 min incubation): 96

Recorded result, O=C(O)C(=O)CC(Cc1ccc2ccccc2c1)C(=O)O (racemic) [compound 20] , activity [%] (%-substrate conversion after 20 min incubation): 97

----------
Kindly state activity [%] (%-substrate conversion after 20 min incubation) for each of the entries shown.
- Tgt: R172K IDH2 (Homo sapiens, UniProt P48735, R172K)
- Construct: made in house; host or cells: Sf21 insect cells (cell pellets prepared at Evotec)
- Sequence (P48735 40-452 R172K): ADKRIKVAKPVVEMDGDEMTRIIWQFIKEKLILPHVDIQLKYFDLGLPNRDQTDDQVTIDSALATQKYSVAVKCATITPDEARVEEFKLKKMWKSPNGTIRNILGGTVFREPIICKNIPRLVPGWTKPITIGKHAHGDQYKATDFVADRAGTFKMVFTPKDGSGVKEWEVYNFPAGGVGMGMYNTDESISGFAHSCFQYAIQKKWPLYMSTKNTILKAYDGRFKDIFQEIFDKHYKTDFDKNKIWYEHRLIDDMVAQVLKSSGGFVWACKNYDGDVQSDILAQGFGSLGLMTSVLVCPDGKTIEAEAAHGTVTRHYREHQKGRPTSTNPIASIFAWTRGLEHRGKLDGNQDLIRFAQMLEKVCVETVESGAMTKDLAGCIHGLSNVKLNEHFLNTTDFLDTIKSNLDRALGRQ
- Assay name: Absorbance assay, variant activity in the presence of equimolar 2OG (inhibition screen)
- Format: biochemical
- Condition: 1.0 mM 2OG and 1.0 mM test compound, 0.03 μM R172K IDH2, 50 μM NADPH
Write it as a number; the unit % goes unstated.

# CSCCC(=O)C(=O)O [4-methylthio-2-oxobutyric acid] with R172K IDH2 (Homo sapiens, UniProt P48735, R172K): activity [%] (%-substrate conversion after 20 min incubation) is 96

# O=C(O)CC(S)C(=O)O (stereo not shown) [2-mercaptosuccinic acid] with R172K IDH2 (Homo sapiens, UniProt P48735, R172K): activity [%] (%-substrate conversion after 20 min incubation) is 99

# O=C(O)C(=O)C(=O)O [ketomalonic acid] with R172K IDH2 (Homo sapiens, UniProt P48735, R172K): activity [%] (%-substrate conversion after 20 min incubation) is 85

# CC1(C)C(C(=O)O)C1C(=O)C(=O)O (mixture of isomers) [compound 22] with R172K IDH2 (Homo sapiens, UniProt P48735, R172K): activity [%] (%-substrate conversion after 20 min incubation) is 110

# CCCCC(CC(=O)C(=O)O)C(=O)O (racemic) [compound 16] with R172K IDH2 (Homo sapiens, UniProt P48735, R172K): activity [%] (%-substrate conversion after 20 min incubation) is 100

# C/C(=C\C(=O)O)C(=O)O [mesaconic acid] with R172K IDH2 (Homo sapiens, UniProt P48735, R172K): activity [%] (%-substrate conversion after 20 min incubation) is 104

# CC(C)(C)CCC(CC(=O)O)C(=O)C(=O)O (racemic) [compound 5] with R172K IDH2 (Homo sapiens, UniProt P48735, R172K): activity [%] (%-substrate conversion after 20 min incubation) is 98

# O=C(O)C(=O)CC(CCCc1ccccc1)C(=O)O (racemic) [compound 18] with R172K IDH2 (Homo sapiens, UniProt P48735, R172K): activity [%] (%-substrate conversion after 20 min incubation) is 74

# O=C(O)C(=O)c1cscc1C(=O)O [compound 31] with R172K IDH2 (Homo sapiens, UniProt P48735, R172K): activity [%] (%-substrate conversion after 20 min incubation) is 99

# CC(=O)C(=O)O [pyruvic acid] with R172K IDH2 (Homo sapiens, UniProt P48735, R172K): activity [%] (%-substrate conversion after 20 min incubation) is 114
